Assay: self-splicing fitness, log relative to wild type (ln ratio); higher = more splicing; Tetrahymena group I intron in knt gene, E. coli kanamycin selection, DiMSum; sequences stand for … in CUCUCU…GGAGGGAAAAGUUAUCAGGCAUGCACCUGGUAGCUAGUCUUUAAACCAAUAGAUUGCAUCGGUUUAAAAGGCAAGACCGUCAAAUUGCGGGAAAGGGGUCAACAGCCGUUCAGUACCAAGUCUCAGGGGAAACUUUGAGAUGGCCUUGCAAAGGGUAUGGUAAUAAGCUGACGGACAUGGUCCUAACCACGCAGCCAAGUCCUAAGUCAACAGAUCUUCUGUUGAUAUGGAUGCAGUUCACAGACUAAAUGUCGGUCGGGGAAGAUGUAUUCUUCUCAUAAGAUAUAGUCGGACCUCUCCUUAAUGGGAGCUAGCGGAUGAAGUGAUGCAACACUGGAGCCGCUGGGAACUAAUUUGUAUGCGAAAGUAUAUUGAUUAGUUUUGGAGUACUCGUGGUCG;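 note: selection with 25 µg/mL kanamycin versus none on LB agar overnight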
Details: 30 °C
Label Fulfilled when self-splicing fitness (ln) is at or above -3; anything below gets Not fulfilled.

# check: self-splicing fitness (ln) of CGCGAGCAAUAUUACGACAU is greater than or equal to -3
Not fulfilled

# check: self-splicing fitness (ln) of CCUGAGCAAUAUUACGCACU is greater than or equal to -3
Not fulfilled

# check: self-splicing fitness (ln) of AGUAAGCAAUAUUACGUUCA is greater than or equal to -3
Fulfilled

# check: self-splicing fitness (ln) of GGGAAGCAAUAUUACGUCCA is greater than or equal to -3
Fulfilled

# check: self-splicing fitness (ln) of UUGAAGCAAUAUUACGUGGG is greater than or equal to -3
Fulfilled

# check: self-splicing fitness (ln) of UCAGAGCAAUAUUACGGGUG is greater than or equal to -3
Not fulfilled

# check: self-splicing fitness (ln) of CACGAGCAAUAUUACGUGGG is greater than or equal to -3
Not fulfilled

# check: self-splicing fitness (ln) of GCUCAGCAAUAUUACGAAUC is greater than or equal to -3
Fulfilled

###

Assay: self-splicing fitness, log relative to wild type (ln ratio); higher = more splicing; Tetrahymena group I intron in knt gene, E. coli kanamycin selection, DiMSum; sequences stand for … in CUCUCU…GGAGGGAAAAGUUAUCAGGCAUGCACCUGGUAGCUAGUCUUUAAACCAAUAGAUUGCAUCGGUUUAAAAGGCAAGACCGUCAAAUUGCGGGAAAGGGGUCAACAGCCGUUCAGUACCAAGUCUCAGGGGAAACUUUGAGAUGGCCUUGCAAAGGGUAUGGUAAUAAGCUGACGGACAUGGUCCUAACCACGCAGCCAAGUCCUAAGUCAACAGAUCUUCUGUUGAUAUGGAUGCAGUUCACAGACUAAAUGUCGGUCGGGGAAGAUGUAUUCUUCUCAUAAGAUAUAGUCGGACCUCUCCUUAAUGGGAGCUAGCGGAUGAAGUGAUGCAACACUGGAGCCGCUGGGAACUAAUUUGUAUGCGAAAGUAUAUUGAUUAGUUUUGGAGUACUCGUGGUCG
Details: 30 °C
Consider the following sequences; for each one, report its self-splicing fitness (ln).
Reply: number alone, nothing else.

Consider the sequence GAUAAGCAAUAUUACGCUGG and give its recorded self-splicing fitness (ln).
-2.66

Consider the sequence GUGUAGCAAUAUUACGAAAG and give its recorded self-splicing fitness (ln).
-2.33

Consider the sequence GCUGAGCAAUAUUACGAAAC and give its recorded self-splicing fitness (ln).
-2.42

Consider the sequence GUAAAGCAAUAUUACGUACA and give its recorded self-splicing fitness (ln).
-0.0825

Consider the sequence CCCUAGCAAUAUUACGGGAG and give its recorded self-splicing fitness (ln).
-3.67

Consider the sequence CAUGAGCAAUAUUACGUUCA and give its recorded self-splicing fitness (ln).
-3.67

Consider the sequence AUCGAGCAAUAUUACGGAGG and give its recorded self-splicing fitness (ln).
-1.89

Consider the sequence CUAAAGCAAUAUUACGCACU and give its recorded self-splicing fitness (ln).
-3.41

Consider the sequence UAACAGCAAUAUUACGAGCA and give its recorded self-splicing fitness (ln).
-1.22

Consider the sequence AGCAAGCAAUAUUACGACGC and give its recorded self-splicing fitness (ln).
-1.09

Consider the sequence ACGUAGCAAUAUUACGCACA and give its recorded self-splicing fitness (ln).
-0.463

Consider the sequence ACGUAGCAAUAUUACGGACG and give its recorded self-splicing fitness (ln).
-1.88

Consider the sequence CAGCAGCAAUAUUACGACGA and give its recorded self-splicing fitness (ln).
-1.68

Consider the sequence CUGGAGCAAUAUUACGGUUC and give its recorded self-splicing fitness (ln).
-2.68

Consider the sequence CGUGAGCAAUAUUACGUCUU and give its recorded self-splicing fitness (ln).
-2.26

Consider the sequence AAGGAGCAAUAUUACGGUUG and give its recorded self-splicing fitness (ln).
-2.52
